Assignment: determine reported SPOT intensity for the given binders.
Target: T1, Boi2, P39969
T1 sequence (P39969 32-116, looked up): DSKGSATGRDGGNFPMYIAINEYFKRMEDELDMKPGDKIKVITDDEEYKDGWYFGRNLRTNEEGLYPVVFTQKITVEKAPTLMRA
Test: SPOT array
Conditions: median of control spots 1161

BINDER	SPOT intensity
PSTMDFPKLPSFQNS	0
ALKQKKIPPPFKPHL	0
GERSRPLVISILSSA	0

Please give SPOT intensity for each item listed below.
1. RRTRLRPPTPLSQLL
2. RPKRRAPPPVPKKPS
3. APPLPPTAPPPPSLP
4. STKKPRPPVKSKPKH
5. TPTSGPPLLPPRNTM
6. KTRLRPAFIQQLWSS

0
1
0
1
0
0

These data points were gathered from paper PMC2756588.
